All figures here come from paper PMC12603070.

Consider the following compounds and their measured Percentage of cell death % 48h, Caco-2 readings.
System: Caco-2 cells
Assay type: cell-based
Conditions: Caco-2; 48h; 20 μM
Structures can show the parent of a compound that is named as a salt.
Field: numeric (%). Do not append units.

INSERT INTO measurements (compound, observed) VALUES
  ('Cc1ccc(C(=O)Nc2ccc(CN3CCN(C)CC3)c(C(F)(F)F)c2)cc1C#Cc1cnc2cccnn12', 42.5244),
  ('CCCSc1nc(N[C@@H]2C[C@H]2c2ccc(F)c(F)c2)c2nnn([C@@H]3C[C@H](OCCO)[C@@H](O)[C@H]3O)c2n1', 3.049),
  ('Cc1ccc(C(=O)N(CCCN)[C@@H](c2nc3cc(Cl)ccc3c(=O)n2Cc2ccccc2)C(C)C)cc1 [Ispinesib (SB-715992), Ispinesib]', 89.1796),
  ('C[C@@H](NCCCc1cccc(C(F)(F)F)c1)c1cccc2ccccc12 [Cinacalcet HCl]', 76.6269);

The compound C=C[C@@H]1C[C@]1(NC(=O)[C@@H]1C[C@@H]2CN1C(=O)[C@H](C(C)(C)C)NC(=O)O[C@@H]1C[C@H]1CCCCCc1nc3ccc(OC)cc3nc1O2)C(=O)NS(=O)(=O)C1CC1 on Caco-2 cells: Percentage of cell death % 48h, Caco-2 was 2.005

The compound COc1cc2nccc(Oc3ccc(NC(=O)Nc4cc(C)on4)c(Cl)c3)c2cc1OC on Caco-2 cells: Percentage of cell death % 48h, Caco-2 was 6.001
